test system: NCI-H520; experiment: relative viability (nuclei count vs DMSO), 5 days (fraction); higher = more cells survive; settings: first compound 0.2 µM
measurementType: relative viability

Below, 3 compounds whose answers are already recorded.
compound	relative viability
COCC1(CO)C(=O)C2CCN1CC2 (centres undefined) [PRIMA-1MET] + O=C(c1cc(Cc2n[nH]c(=O)c3ccccc23)ccc1F)N1CCN(C(=O)C2CC2)CC1 [Olaparib] (partner 8 µM)	0.371
COCC1(CO)C(=O)C2CCN1CC2 (centres undefined) [PRIMA-1MET] + CS(=O)(=O)N1CCN(Cc2cc3nc(-c4cccc5[nH]ncc45)nc(N4CCOCC4)c3s2)CC1 [Pictilisib] (partner 1 µM)	0.345
COCC1(CO)C(=O)C2CCN1CC2 (centres undefined) [PRIMA-1MET] + C[C@]1(O)C[C@@H](c2nc(-c3ccc4ccc(-c5ccccc5)nc4c3)c3c(N)nccn32)C1 [Linsitinib] (partner 1 µM)	1.05

Kindly consider the entry below.
Input line: Can you look up the measured relative viability of COCC1(CO)C(=O)C2CCN1CC2 (centres undefined) [PRIMA-1MET] + CC(=O)c1c(C)c2cnc(Nc3ccc(N4CCNCC4)cn3)nc2n(C2CCCC2)c1=O [Palbociclib] (partner 0.5 µM) for me?
Output line: 0.249
